Hello, the source for this data is patent US7666901B2, in case you need it.

- measurement.target: Human TOR (Homo sapiens, UniProt P42345)
- Construct: FLAG
- assay.info: Human TOR (mTOR) kinase assay, DELFIA format
- Type: biochemical
- experimental.conditions: Table 2
observation.type: IC50

Inquiry: GET /values?readout=IC50&system=Human TOR (Homo sapiens, UniProt P42345)&item= COCC1OC(=O)C(=CN(CCO)CCO)C2=C(O)C(=O)C3=C(C(OC(C)=O)CC4(C)C(O)CCC34)C21C (stereo not shown)
Reply text: > 18.7 µM

Inquiry: GET /values?readout=IC50&system=Human TOR (Homo sapiens, UniProt P42345)&item= COCC1OC(=O)C(=CN2CCCC2C(=O)OC)C2=C(O)C(=O)C3=C(C(OC(C)=O)CC4(C)C(O)CCC34)C21C (stereo not shown) [Compound 40]
Reply text: > 17.9 µM

Inquiry: GET /values?readout=IC50&system=Human TOR (Homo sapiens, UniProt P42345)&item= COCC1OC(=O)C(=CN(C)C(C=C(C)C(=O)OC)C(C)C)C2=C(O)C(=O)C3=C(C(OC(C)=O)CC4(C)C(O)CCC34)C21C (stereo not shown)
Reply text: > 16.2 µM

Inquiry: GET /values?readout=IC50&system=Human TOR (Homo sapiens, UniProt P42345)&item= CCN(C=C1C(=O)OC(COC)C2(C)C3=C(C(=O)C(O)=C12)C1CCC(O)C1(C)CC3)CCN(C)C (stereo not shown)
Reply text: > 20.5 µM
